system: 435261-313-R-J1-PDC tumor spheroid viability; experiment: Anticancer human tumor 435261-313-R-J1-PDC patient-derived colon adenocarcinoma cell line growth inhibition [PI3K]; settings: second compound 0.316 µM; first compound 10 µM; stronger effect = lower value; spheroids with HUVEC and MSC
Reported viability, T/C values for a set of compounds
ENDPOINT_LABEL: viability, T/C (%)

[[record]]
compound = "Cn1nccc1Nc1nccc(-c2ccn(C(CO)c3ccc(Cl)c(F)c3)c(=O)c2)n1 (stereo not given) + COc1c(OCCCN2CCOCC2)ccc2c3n(c(=NC(=O)c4cnc(N)nc4)nc12)CCN3"
observed_result = 0.46

[[record]]
compound = "CC1(C)CCC(CN2CCN(c3ccc(C(=O)NS(=O)(=O)c4ccc(NCC5CCOCC5)c([N+](=O)[O-])c4)c(Oc4cnc5[nH]ccc5c4)c3)CC2)=C(c2ccc(Cl)cc2)C1 + COc1c(OCCCN2CCOCC2)ccc2c3n(c(=NC(=O)c4cnc(N)nc4)nc12)CCN3"
observed_result = 4.39

[[record]]
compound = "CNC(=O)c1ccc(N2C(=S)N(c3ccc(C#N)c(C(F)(F)F)c3)C(=O)C2(C)C)cc1F + Cc1nc(NC(=O)N2CCCC2C(N)=O)sc1-c1ccnc(C(C)(C)C(F)(F)F)c1"
observed_result = 45.7

[[record]]
compound = "CC1(C)CCC(Nc2ncc(C(F)(F)F)c(-c3c[nH]c4c(P(C)(C)=O)c(C#N)ccc34)n2)CN1 (stereo not given) + COc1c(OCCCN2CCOCC2)ccc2c3n(c(=NC(=O)c4cnc(N)nc4)nc12)CCN3"
observed_result = 0.23

[[record]]
compound = "C=CC(=O)N1CCN(c2nc(=O)n(-c3c(C)ccnc3C(C)C)c3nc(-c4c(O)cccc4F)c(F)cc23)C(C)C1 (stereo not given) + CC(Nc1ccc2c(c1)OCCn1cc(N3C(=O)OCC3C(F)F)nc1-2)C(N)=O"
observed_result = 21.1


---

test system: 435261-313-R-J1-PDC tumor spheroid viability; test: Anticancer human tumor 435261-313-R-J1-PDC cell line growth inhibition [PI3K]; conditions: curve of first compound; second compound 1 µM; spheroids with HUVEC and MSC;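 further: spheroids exposed to compounds for 7 days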
ENDPOINT_LABEL: IC50

[[record]]
compound = "CCN1CCN(Cc2ccc(Nc3ncc(F)c(-c4cc(F)c5nc(C)n(C(C)C)c5c4)n3)nc2)CC1 + CC(Nc1ncnc2nc[nH]c12)c1cc2cccc(Cl)c2c(=O)n1-c1ccccc1"
observed_result = "222 nM"

[[record]]
compound = "Cn1ncnc1[C@H]1c2n[nH]c(=O)c3cc(F)cc(c23)N[C@@H]1c1ccc(F)cc1 + Cc1nc(NC(=O)N2CCCC2C(N)=O)sc1-c1ccnc(C(C)(C)C(F)(F)F)c1"
observed_result = "< 0.316 nM"

[[record]]
compound = "CC(C)NCC(C(=O)N1CCN(c2ncnc3c2C(C)CC3O)CC1)c1ccc(Cl)cc1 (stereo unspecified) + CC(Nc1ncnc2nc[nH]c12)c1cc2cccc(Cl)c2c(=O)n1-c1ccccc1"
observed_result = "4820 nM"

[[record]]
compound = "CC(Cn1ccc(-c2ccc(C#N)c(Cl)c2)n1)NC(=O)c1cc(C(C)O)[nH]n1 (stereo unspecified) + Cc1nc(NC(=O)N2CCCC2C(N)=O)sc1-c1ccnc(C(C)(C)C(F)(F)F)c1"
observed_result = "< 31.6 nM"

[[record]]
compound = "C=CC(=O)N1CCN(c2nc(=O)n(-c3c(C)ccnc3C(C)C)c3nc(-c4c(O)cccc4F)c(F)cc23)C(C)C1 (stereo unspecified) + COc1c(OCCCN2CCOCC2)ccc2c3n(c(=NC(=O)c4cnc(N)nc4)nc12)CCN3"
observed_result = "< 31.6 nM"

[[record]]
compound = "CNC(=O)c1ccc(N2C(=S)N(c3ccc(C#N)c(C(F)(F)F)c3)C(=O)C2(C)C)cc1F + COc1c(OCCCN2CCOCC2)ccc2c3n(c(=NC(=O)c4cnc(N)nc4)nc12)CCN3"
observed_result = "< 31.6 nM"

